// tissue uptake at 24 h lookup, one value per entry
# measurement-notes: Biodistribution of 177Lu-labeled αMSH analogues in mice bearing SK-MEL-1 human melanoma
# cond: male, NRG (NOD.Cg-Rag1tm1Mom Il2rgtm1Wjl/SzJ), mouse, liver, total radioactivity
Remember to quote the unit after the number.

Use these answered entries as a reference point.
INSERT INTO assay_data (compound, data_value) VALUES
  ('CCCC[C@H](NC(=O)CN1CCC(NC(=O)[C@H](CCCCNC(=O)CN2CCN(CC(=O)O)CCN(CC(=O)O)CCN(CC(=O)O)CC2)NC(=O)[C@H](CCC(=O)O)NC(=O)CCCc2ccc(I)cc2)CC1)C(=O)N[C@H]1CC(=O)NCCCC[C@@H](C(N)=O)N(C)C(=O)[C@H](Cc2c[nH]c3ccccc23)NC(=O)[C@H](CCCNC(=N)N)N(C)C(=O)[C@@H](Cc2ccccc2)NC(=O)[C@H](Cc2c[nH]cn2)NC1=O [^177Lu-labeled CCZ01118, metal not drawn]', '4.36 %ID/g'),
  ('CCCC[C@H](NC(=O)CN1CCC(NC(=O)[C@H](CCCCNC(=O)CN2CCN(CC(=O)O)CCN(CC(=O)O)CCN(CC(=O)O)CC2)NC(=O)CNC(=O)CCCc2ccc(I)cc2)CC1)C(=O)N[C@H]1CC(=O)NCCCC[C@@H](C(N)=O)N(C)C(=O)[C@H](Cc2c[nH]c3ccccc23)NC(=O)[C@H](CCCNC(=N)N)N(C)C(=O)[C@@H](Cc2ccccc2)NC(=O)[C@H](Cc2c[nH]cn2)NC1=O [^177Lu-labeled CCZ01148, metal not drawn]', '8.35 %ID/g');

Q: Entry under review: CCCC[C@H](NC(=O)CN1CCC(NC(=O)[C@H](CCCCNC(=O)CN2CCN(CC(=O)O)CCN(CC(=O)O)CCN(CC(=O)O)CC2)NC(=O)CNC(=O)CCCc2ccc(-c3ccc(C)cc3)cc2)CC1)C(=O)N[C@H]1CC(=O)NCCCC[C@@H](C(N)=O)N(C)C(=O)[C@H](Cc2c[nH]c3ccccc23)NC(=O)[C@H](CCCNC(=N)N)N(C)C(=O)[C@@H](Cc2ccccc2)NC(=O)[C@H](Cc2c[nH]cn2)NC1=O [^177Lu-labeled CCZ01158, metal not drawn] . Reported tissue uptake at 24 h?
Result: 4.45 %ID/g
